Data origin, for the record: PubChem BioAssay

Recorded measurements of composite z-score, one per entry
# protocolDetails: binders of probe aFGF10 on microarray, primary screen, stem cell growth factor project, biochemical, small-molecule microarray, fluorescence 635/667 (AID 1071);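 also: score merges 667 nm spot intensity and signal to noise from triplicate slides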
# cond: higher = more signal
recordedMetric: composite z-score

| compound | recordedMetric | valueObserved |
| --- | --- | --- |
| Cc1ccc(S[C@]2(C(=O)NCc3ccccc3)CC(=O)N(Cc3cc(C(F)(F)F)cc(C(F)(F)F)c3)[C@@H]2c2ccc(CO)cc2I)cc1 | composite z-score | -1.03 |
| C=C[C@H](C)[C@H](OC(=O)Nc1ccc(OC)cc1)c1ccc(OCCO)cc1 | composite z-score | -1.65 |
| O=C(NCC(O)CO)[C@@]1(CCS(=O)(=O)c2ccccc2)COC(c2ccc(OCCCO)cc2)=N1 (stereo partly drawn) | composite z-score | 0.25 |
| CCOC(=O)C1=CC[C@@H](c2ccccc2)N(S(=O)(=O)c2ccc(C)cc2)[C@H]1c1cccc(OC)c1 | composite z-score | 0.31 |
| COC(=O)[C@@]1(Cc2ccccc2CN=[N+]=[N-])N=C(c2ccc(OCCCO)cc2)O[C@H]1c1ccccc1 | composite z-score | -0.774 |
| COc1cc(NN2C(C(O)c3ccc(I)cc3)C=CC3C(=O)N(c4ccccc4)C(=O)C32)cc(OC)c1OC (stereo not drawn) | composite z-score | 0.868 |
| CN1C(=O)C2C=CC(C(O)c3ccc(I)cc3)N(Nc3ccccc3)C2C1=O (stereo not drawn) | composite z-score | 0.846 |
| Cc1cccc([C@H]2C[C@H]3C(Br)=C[C@@H]2C(=O)[C@]32CO2)c1 | composite z-score | -0.228 |
